Target: RORγ ligand binding domain (RORγ-LBD) (Homo sapiens, UniProt P51449)
Construct: modified polyhistidine tag MKKHHHHHHLVPRGS (N)
Sequence (P51449 263-518): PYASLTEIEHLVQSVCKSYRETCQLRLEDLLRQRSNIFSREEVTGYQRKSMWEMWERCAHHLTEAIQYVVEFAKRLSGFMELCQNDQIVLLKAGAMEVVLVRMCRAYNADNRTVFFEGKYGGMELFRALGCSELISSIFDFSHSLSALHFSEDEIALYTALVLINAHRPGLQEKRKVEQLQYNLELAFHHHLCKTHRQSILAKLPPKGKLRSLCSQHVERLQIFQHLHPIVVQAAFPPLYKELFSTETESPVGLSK
Assay: Dual Fluorescence Energy Transfer (FRET) Assay
Details: mean pIC50 of multiple test results if tested more than once; RORγ-LBD/SRC1(2) peptide interaction
IC50 values, listed per item

Cc1ncc(C(=O)Nc2cc(Cl)cc(CN3CCN(C(=O)[C@@H]4CCOC4)[C@@H](C)C3)c2C)cc1C#N (single isomer, unassigned)
~794 nM

Moving on to another compound below.
IC50 measured on "Cc1ncc(C(=O)Nc2cc(Cl)cc(CN3CCN(C(=O)[C@H]4CCOC4)[C@@H](C)C3)c2C)cc1F" = ~200 nM

====

Molecular target: RORγ (Homo sapiens)
Sequence (P51449 1-497 isoform P51449-2): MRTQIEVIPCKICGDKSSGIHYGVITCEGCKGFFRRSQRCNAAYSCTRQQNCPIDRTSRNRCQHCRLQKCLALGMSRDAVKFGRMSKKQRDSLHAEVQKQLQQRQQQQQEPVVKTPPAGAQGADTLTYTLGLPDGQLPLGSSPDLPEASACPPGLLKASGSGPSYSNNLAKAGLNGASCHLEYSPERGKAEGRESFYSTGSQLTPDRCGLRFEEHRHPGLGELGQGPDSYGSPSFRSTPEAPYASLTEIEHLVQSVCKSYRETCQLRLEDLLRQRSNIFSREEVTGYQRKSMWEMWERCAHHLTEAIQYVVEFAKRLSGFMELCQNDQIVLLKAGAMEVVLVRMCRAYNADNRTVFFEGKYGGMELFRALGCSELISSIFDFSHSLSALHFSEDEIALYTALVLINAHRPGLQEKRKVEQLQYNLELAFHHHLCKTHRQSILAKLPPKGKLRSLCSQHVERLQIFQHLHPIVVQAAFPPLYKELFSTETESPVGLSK
Assay: Jurkat Cell Luciferase Assay
Settings: mean pIC50 of multiple test results if tested more than once; Jurkat cells, human IL17 promoter luciferase reporter, RORγt overexpression
IC50 values, listed per item

Cc1ncc(C(=O)Nc2cc(Cl)cc(CN3CCN(C(=O)[C@H]4CCOC4)[C@@H](C)C3)c2C)cc1F
~25.1 nM

IC50 measured on Cc1ncc(C(=O)Nc2cc(Cl)cc(CN3CCN(C(=O)[C@@H]4CCOC4)[C@@H](C)C3)c2C)cc1C#N (single isomer, unassigned) = ~12.6 nM

====

Target: UniProt P51449
Sequence (P51449 269-508 limits assumed): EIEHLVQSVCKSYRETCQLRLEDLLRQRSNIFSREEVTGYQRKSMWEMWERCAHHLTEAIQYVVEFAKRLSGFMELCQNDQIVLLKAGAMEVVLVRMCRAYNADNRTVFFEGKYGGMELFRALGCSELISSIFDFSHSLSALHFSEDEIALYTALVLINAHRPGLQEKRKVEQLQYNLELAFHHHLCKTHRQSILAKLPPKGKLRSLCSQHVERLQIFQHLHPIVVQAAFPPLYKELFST
pIC50: −log10 of the molar value.
Value kind: pIC50

pIC50 measured on "Cc1ncc(C(=O)Nc2cc(Cl)cc(CN3CCN(C(=O)[C@H]4CCOC4)[C@@H](C)C3)c2C)cc1F" = ~6.90
